I'd be grateful if you could share measured ki for these entries.
tested target: Enterobacter cloacae P99 β-lactamase (Enterobacter cloacae, UniProt P05364)
Construct: purchased Porton Down, Wiltshire, U.K
Sequence (P05364 21-381): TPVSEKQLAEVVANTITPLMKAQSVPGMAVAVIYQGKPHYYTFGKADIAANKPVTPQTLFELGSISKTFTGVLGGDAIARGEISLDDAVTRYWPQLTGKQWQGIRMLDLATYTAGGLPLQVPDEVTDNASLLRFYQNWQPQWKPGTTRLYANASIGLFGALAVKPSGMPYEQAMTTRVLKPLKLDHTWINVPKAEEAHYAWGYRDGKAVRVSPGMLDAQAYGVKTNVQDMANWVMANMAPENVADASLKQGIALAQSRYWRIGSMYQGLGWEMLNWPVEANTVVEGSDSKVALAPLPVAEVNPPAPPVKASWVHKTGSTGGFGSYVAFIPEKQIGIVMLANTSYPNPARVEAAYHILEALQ
Assay type: biochemical
test settings: values in parentheses, second order rate constant for inhibition

# example entries with known answers
{"columns": ["compound", "ki"],
 "data": [
  ["O=C(OP(=O)(O)c1cccc([N+](=O)[O-])c1)c1ccccc1 [Compound XIX]", "0.0179(65 ± 19) s^−1 M^−1"],
  ["O=C(OP(=O)(O)Oc1ccc([N+](=O)[O-])cc1)c1ccccc1 [Compound XI]", "≤ 2 s⁻¹ M⁻¹"],
  ["O=C(OP(=O)(O)Oc1ccc2ccccc2c1)c1ccccc1 [Compound XXXI]", "≤ 1 s⁻¹ M⁻¹"]
]}

API: the following record is the query input.
[ask] # query: ki of entry O=C(OP(=O)(O)Oc1ccc2ccccc2c1)c1cc2ccccc2s1 [Compound XXX]
[reply] 1813 ± 3 s⁻¹ M⁻¹
